Biological target: MMP-1 (Homo sapiens)
Construct: human recombinant fibroblast collagenase (truncated, mw=18,828)
Sequence (P03956 100-269 limits assumed): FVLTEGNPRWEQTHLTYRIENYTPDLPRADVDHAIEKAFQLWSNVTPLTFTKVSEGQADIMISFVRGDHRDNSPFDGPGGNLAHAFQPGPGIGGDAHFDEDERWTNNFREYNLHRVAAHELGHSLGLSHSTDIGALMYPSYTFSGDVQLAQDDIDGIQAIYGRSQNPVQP
Test: In Vitro Collagenase Assay (MMP-1)
Type: biochemical
Conditions: human recombinant fibroblast collagenase
compounds and their reported IC50
Note: unit nM is implicit; provide only the numeric part.

The cases that follow already have their IC50 on record.
COc1ccc(S(=O)(=O)N2Cc3ccccc3N(C(=O)c3ccccc3-c3ccccc3)CC2C(=O)NO)cc1 (centres unmarked)
542
COCC(=O)N1CC(C(=O)NO)N(S(=O)(=O)c2ccc(OC)cc2)Cc2cc(C)ccc21 (centres unmarked)
105
COCCN1CC(C(=O)NO)N(S(=O)(=O)c2ccc(OC)cc2)Cc2ccccc21 (centres unmarked)
1000
COc1ccc(S(=O)(=O)N2Cc3ccc(Cl)cc3N(C(=O)c3ccc(OC(F)(F)F)cc3)CC2C(=O)NO)cc1 (centres unmarked)
239
COc1ccc(S(=O)(=O)N2Cc3ccc(Cl)cc3N(C(=O)c3ccccc3N3CCOCC3)CC2C(=O)NO)cc1 (centres unmarked)
157
COc1ccc(S(=O)(=O)N2CC(C(=O)NO)N(S(=O)(=O)c3ccc(OC)cc3)Cc3ccccc32)cc1 (centres unmarked)
224
COc1ccc(S(=O)(=O)N2Cc3ccccc3N(C(=O)c3cc(F)ccc3C)CC2C(=O)NO)cc1 (centres unmarked)
55.4
COc1ccc(S(=O)(=O)N2Cc3ccccc3N(C(=O)c3ccc(OC)cc3OC)CC2C(=O)NO)cc1 (centres unmarked)
41.3
COc1ccc(S(=O)(=O)N2Cc3ccccc3N(C(C)=O)CC2C(=O)NO)cc1 (centres unmarked)
18.4
COc1ccc(S(=O)(=O)N2Cc3ccccc3N(S(C)(=O)=O)CC2C(=O)NO)cc1 (centres unmarked)
156

## Task Please report IC50 for the following compound: COc1ccc(S(=O)(=O)N2Cc3ccccc3N(C(=O)COc3ccccc3)CC2C(=O)NO)cc1 (centres unmarked)
## Result 65.5

## Task Please report IC50 for the following compound: COc1ccc(S(=O)(=O)N2Cc3ccccc3N(C(=O)CN3CCN(C)CC3)CC2C(=O)NO)cc1 (centres unmarked)
## Result 4980

## Task Please report IC50 for the following compound: COc1ccc(S(=O)(=O)N2Cc3ccccc3N(C(=O)c3ccncc3)CC2C(=O)NO)cc1 (centres unmarked)
## Result 54.9

## Task Please report IC50 for the following compound: COc1ccc(S(=O)(=O)N2Cc3ccccc3N(Cc3ccccc3)CC2C(=O)NO)cc1 (centres unmarked)
## Result 1320

# credit: patent US6071903A
